Assay: Phase I calcium acetate interaction study
Type: in vivo, human
Details: human, plasma, oral, 300 mg, Concomitant administration with calcium acetate 1334 mg after breakfast; read-out: Clearance (ClB) (converted)
Procedure: A phase I, open-label, fixed-sequence study was conducted in healthy adult subjects to assess the effect of 1) a single oral dose of calcium acetate on the pharmacokinetics of a single oral dose of vadadustat. The study included screening (28 days maximum), 9-day treatment period, and a 14-day follow-up period post last dose. Pharmacokinetics. […] The following parameters were calculated and analyzed: AUC0-∞, AUC0-last, Cmax, Tmax, Kel, CIB, Vc/F, and t1/2. […]
measurement-label: clearance (mL/min)
Write the number in mL/min without appending the unit.

What value of clearance has been recorded for this entry: O=C(O)CNC(=O)c1ncc(-c2cccc(Cl)c2)cc1O [Compound 1]
77.3

* * *

test: Phase I single-dose study, moderate hepatic impairment versus normal hepatic function; format: in vivo, human; details: both sexes, human, plasma, oral, 450 mg, Volume of distribution (Vd/F), Unbound Compound 1, single 450 mg, Normal Liver Function, mean ± SD
measurement-label: Vd/F (L)
Give just the numeric value; L need not be written.

Fill in the blank: the reported Vd/F of `O=C(O)CNC(=O)c1ncc(-c2cccc(Cl)c2)cc1O` is ____.
1330

* * *

experiment: Phase I single-dose study, moderate hepatic impairment versus normal hepatic function; format: in vivo, human; details: both sexes, human, plasma, oral, 450 mg, single 450 mg, Moderate Hepatic Impairment, mean ± SD; read-out: AUC0-last, plasma, total
measurement-label: AUC(0-t) (µg·h/mL)
All answers are understood in µg·h/mL, so give the number only.

Recorded AUC(0-t) for O=C(O)CNC(=O)c1ncc(-c2cccc(Cl)c2)cc1O [Compound 1] , please?
432

* * *

test: Phase 1 oral iron interaction study, Cohort 1 (after meal): sodium ferrous citrate, ferric citrate hydrate; assay type: in vivo, human; conditions: male, human, plasma, oral, 150 mg, Compound 1 150 mg alone, read-out: Cmax, LS geometric mean
measurement-label: Cmax (ng/mL)
// note: answer is a bare numeric in ng/mL

For O=C(O)CNC(=O)c1ncc(-c2cccc(Cl)c2)cc1O [Compound 1] , what is its reported Cmax?
14300

* * *

assay: Phase 1 oral iron interaction study, Cohort 2 (before meal): sucroferric oxyhydroxide; format: in vivo, human; conditions: male, human, plasma, oral; 150 mg with sucroferric oxyhydroxide (1000 mg iron), before meal; read-out: Cmax, LS geometric mean
measurement-label: Cmax (ng/mL)
Please reply with the bare figure in ng/mL and do not write the unit itself.

Give the measured Cmax of `O=C(O)CNC(=O)c1ncc(-c2cccc(Cl)c2)cc1O` .
8810

* * *

assay: Phase I calcium acetate interaction study; format: in vivo, human; details: human, plasma, oral, 300 mg, Concomitant administration with calcium acetate 1334 mg after breakfast; read-out: Elimination half-life (t1/2) (converted)
measurement-label: half-life (h)
The answer is to be given in h; state only the numeric part.

What does the record list as half-life for `O=C(O)CNC(=O)c1ncc(-c2cccc(Cl)c2)cc1O` ?
4.58

* * *

assay: Phase I single-dose study, moderate hepatic impairment versus normal hepatic function; assay type: in vivo, human; settings: both sexes, human, plasma, oral, 450 mg, single 450 mg, Normal Liver Function, mean ± SD; read-out: Cmax, plasma, total
measurement-label: Cmax (µg/mL)
Just the number please, in µg/mL, no unit attached.

State the recorded Cmax for this entry: `O=C(O)CNC(=O)c1ncc(-c2cccc(Cl)c2)cc1O`
53
